test: Mouse pharmacokinetic study, single oral dose, plasma; format: in vivo, NOD/SCID mice; details: female, NOD/SCID, mouse, plasma, po, 300 mg/kg, Mouse 12; single PO dose 300 mg/kg, plasma; read-out: Tmax
reported metric: Tmax (h)
One number for each entry, in h.

query: Give the value of Tmax reported for the following: COc1ncnc(C2CC2)c1-c1ncc2cnn(Cc3ccc(-c4nc(C(F)(F)F)cn4C(C)C)cc3)c2n1 [Crystalline Form 8]
result: 2

---

experiment: Mouse pharmacokinetic study, single oral dose, plasma; format: in vivo, NOD/SCID mice; settings: female, NOD/SCID, mouse, plasma, po, 300 mg/kg, Mouse 7; single PO dose 300 mg/kg, plasma; read-out: Tmax
reported metric: Tmax (h)
One number for each entry, in h.

query: Look up and report measured Tmax for this entry: COc1ncnc(C2CC2)c1-c1ncc2cnn(Cc3ccc(-c4nc(C(F)(F)F)cn4C(C)C)cc3)c2n1 [Crystalline Form A]
result: 8

---

assay: Distribution in rat brain and plasma after single oral dose; type: in vivo, Sprague Dawley rats; conditions: Sprague Dawley, rat; Female SD rats, single oral dose 100 mg/kg, plasma
reported metric: half-life
Kindly format the answer as number then unit.

query: Supply reported half-life belonging to this molecule: COc1ncnc(C2CC2)c1-c1ncc2cnn(Cc3ccc(-c4nc(C(F)(F)F)cn4C(C)C)cc3)c2n1 [Crystalline Form 2]
result: 16.9 h

---

experiment: Mouse pharmacokinetic study, single oral dose, plasma; type: in vivo, NOD/SCID mice; details: female, NOD/SCID, mouse, plasma, po, 300 mg/kg, Mouse 10; single PO dose 300 mg/kg, plasma; read-out: Cmax
reported metric: Cmax
Kindly format the answer as number then unit.

query: Indicate the recorded Cmax value for this molecule: COc1ncnc(C2CC2)c1-c1ncc2cnn(Cc3ccc(-c4nc(C(F)(F)F)cn4C(C)C)cc3)c2n1 [Crystalline Form 8]
result: 8810 ng/mL

---

Assay: Distribution in mouse brain and plasma after repeated oral dosing
Type: in vivo
Conditions: brain/plasma, 300 mg/kg QD oral gavage, 4 h (Day 28), female NOD SCID mice, read-out: B/P Ratio
Protocol: Female NOD SCID mice of an age between 6-8 weeks and a body weight range of 18-22 g were purchased from Beijing Anikeeper Biotech Co, Ltd. Animals were habituated to the environment for at least 7 days prior to study initiation. Mice were dosed with Crystalline Form 2 at either 100 mg/kg or 300 mg/kg dose levels via oral gavage for 28 days. […] Concentrations of compound in brain homogenates (ng/g) and plasma (ng/ml) were then analyzed using an LC-MS/MS method. […]
reported metric: Kp at 4 h

query: Specify Kp at 4 h for COc1ncnc(C2CC2)c1-c1ncc2cnn(Cc3ccc(-c4nc(C(F)(F)F)cn4C(C)C)cc3)c2n1 [Crystalline Form 2] and stop.
result: 0.424

---

assay: Distribution in rat brain and plasma after single oral dose; assay type: in vivo, Sprague Dawley rats; details: Sprague Dawley, rat; Male SD rats, single oral dose 100 mg/kg, brain
reported metric: Cmax (ng/g)
One number for each entry, in ng/g.

query: Provide one value: measured Cmax of COc1ncnc(C2CC2)c1-c1ncc2cnn(Cc3ccc(-c4nc(C(F)(F)F)cn4C(C)C)cc3)c2n1 [Crystalline Form 2]
result: 3900

---

assay: Distribution in mouse brain and plasma after repeated oral dosing; assay type: in vivo; details: plasma, 300 mg/kg QD oral gavage, 24 h (Day 28), female NOD SCID mice, read-out: Plasma Conc.
reported metric: concentration at 24 h
Answers without a unit are incomplete; give the number and then its unit.

query: For the compound COc1ncnc(C2CC2)c1-c1ncc2cnn(Cc3ccc(-c4nc(C(F)(F)F)cn4C(C)C)cc3)c2n1 [Crystalline Form 2] , report concentration at 24 h.
result: 667 ng/mL

---

assay: Distribution in mouse brain and plasma after repeated oral dosing; assay type: in vivo; settings: brain/plasma, 100 mg/kg QD oral gavage, 4 h (Day 28), female NOD SCID mice, read-out: B/P Ratio
reported metric: Kp at 4 h
Numbers only.

query: Please report Kp at 4 h for the following compound: COc1ncnc(C2CC2)c1-c1ncc2cnn(Cc3ccc(-c4nc(C(F)(F)F)cn4C(C)C)cc3)c2n1 [Crystalline Form 2]
result: 0.306

---

Experiment: Distribution in rat brain and plasma after single oral dose
Format: in vivo, Sprague Dawley rats
Details: Sprague Dawley, rat; Male SD rats, single oral dose 100 mg/kg, plasma
Experimental: Male and female Sprague Dawley rats were purchased from Beijing Anikeeper Biotech Co, Ltd. Animals were habituated to the environment prior to study initiation. Rats were dosed with single dose of 100 mg/kg crystalline Form 2 via oral gavage. The rats were fasted overnight prior to dosing. Animals had access to food from 2 hours post dose and free access to water throughout the study. […] Actual concentration is the measured value multiplied by the dilution factor. […]
reported metric: AUC(0-inf) (µg·h/mL)
Answers are plain numbers, in µg·h/mL.

query: Respond only with AUC(0-inf) recorded for COc1ncnc(C2CC2)c1-c1ncc2cnn(Cc3ccc(-c4nc(C(F)(F)F)cn4C(C)C)cc3)c2n1 [Crystalline Form 2]
result: 102

---

assay: Distribution in mouse brain and plasma after repeated oral dosing; format: in vivo; conditions: brain, 300 mg/kg QD oral gavage, 4 h (Day 28), female NOD SCID mice, read-out: Brain Conc.
reported metric: concentration at 4 h (ng/g)
One number for each entry, in ng/g.

query: Identify measured concentration at 4 h corresponding to COc1ncnc(C2CC2)c1-c1ncc2cnn(Cc3ccc(-c4nc(C(F)(F)F)cn4C(C)C)cc3)c2n1 [Crystalline Form 2]
result: 6500

---

assay: Distribution in mouse brain and plasma after repeated oral dosing; format: in vivo; details: brain/plasma, 300 mg/kg QD oral gavage, 24 h (Day 28), female NOD SCID mice, read-out: B/P Ratio
reported metric: Kp at 24 h
Give bare numbers.

query: Please give measured Kp at 24 h of the following entry: COc1ncnc(C2CC2)c1-c1ncc2cnn(Cc3ccc(-c4nc(C(F)(F)F)cn4C(C)C)cc3)c2n1 [Crystalline Form 2]
result: 0.102

---

experiment: Distribution in rat brain and plasma after single oral dose; format: in vivo, Sprague Dawley rats; settings: Sprague Dawley, rat; Female SD rats, single oral dose 100 mg/kg, brain
reported metric: Tmax (h)
Answers are plain numbers, in h.

query: Tell me measured Tmax for COc1ncnc(C2CC2)c1-c1ncc2cnn(Cc3ccc(-c4nc(C(F)(F)F)cn4C(C)C)cc3)c2n1 [Crystalline Form 2] please.
result: 8

---

Assay: Mouse pharmacokinetic study, single oral dose, plasma
Format: in vivo, NOD/SCID mice
Conditions: female, NOD/SCID, mouse, plasma, po, 300 mg/kg, Mouse 7; single PO dose 300 mg/kg
Description: […] Concentrations of each compound in the plasma samples were then analyzed using an LC-MS/MS method. […] The following PK parameters were calculated, whenever possible from the plasma concentration versus time data: Cmax, Tmax, T1/2, AUCinf, and AUClast. […] Concentrations of compound in the plasma samples were then analyzed using an LC-MS/MS method. […] The following PK parameters were calculated, whenever possible from the plasma concentration versus time data: Cmax, Tmax, T1/2, AUCinf, and AUClast. […]
reported metric: half-life (h)
One number for each entry, in h.

query: Consider the compound COc1ncnc(C2CC2)c1-c1ncc2cnn(Cc3ccc(-c4nc(C(F)(F)F)cn4C(C)C)cc3)c2n1 [Crystalline Form 2] . State its measured half-life.
result: 4.03

---

experiment: Distribution in rat brain and plasma after single oral dose; format: in vivo, Sprague Dawley rats; settings: Sprague Dawley, rat; Male SD rats, single oral dose 100 mg/kg, brain
reported metric: half-life (h)
Give bare numbers, in h.

query: Look up and state reported half-life for COc1ncnc(C2CC2)c1-c1ncc2cnn(Cc3ccc(-c4nc(C(F)(F)F)cn4C(C)C)cc3)c2n1 [Crystalline Form 2]
result: 7.43

---

assay: Distribution in mouse brain and plasma after repeated oral dosing; format: in vivo; conditions: brain, 100 mg/kg QD oral gavage, 24 h (Day 28), female NOD SCID mice, read-out: Brain Conc.
reported metric: concentration at 24 h
// return the numeric value with its unit appended

query: Report concentration at 24 h, nothing else, for this compound: COc1ncnc(C2CC2)c1-c1ncc2cnn(Cc3ccc(-c4nc(C(F)(F)F)cn4C(C)C)cc3)c2n1 [Crystalline Form 2]
result: 19.5 ng/g

---

test: Distribution in rat brain and plasma after single oral dose; format: in vivo, Sprague Dawley rats; conditions: Sprague Dawley, rat, brain and plasma; Female SD rats, single oral dose 100 mg/kg; read-out: B/P Conc. Ratio at tmax
reported metric: Kp
Numbers only.

query: Return Kp (reported value) for this molecule: COc1ncnc(C2CC2)c1-c1ncc2cnn(Cc3ccc(-c4nc(C(F)(F)F)cn4C(C)C)cc3)c2n1 [Crystalline Form 2]
result: 0.58

---

Assay: Distribution in rat brain and plasma after single oral dose
Assay type: in vivo, Sprague Dawley rats
Conditions: Sprague Dawley, rat, brain and plasma; Male SD rats, single oral dose 100 mg/kg; read-out: B/P Conc. Ratio at tmax
Description: Male and female Sprague Dawley rats were purchased from Beijing Anikeeper Biotech Co, Ltd. Animals were habituated to the environment prior to study initiation. Rats were dosed with single dose of 100 mg/kg crystalline Form 2 via oral gavage. The rats were fasted overnight prior to dosing. Animals had access to food from 2 hours post dose and free access to water throughout the study. […] Actual concentration is the measured value multiplied by the dilution factor. […]
reported metric: Kp
One number for each entry.

query: Complete the entry with Kp for COc1ncnc(C2CC2)c1-c1ncc2cnn(Cc3ccc(-c4nc(C(F)(F)F)cn4C(C)C)cc3)c2n1 [Crystalline Form 2]
result: 0.731
